Measured values drawn from patent US6410775 for this set.

Target: ACA-6501 aPL antibody
Assay: competitive ELISA I50; antibody not given, ACA-6501 serum on CL/β2-GPI assumed (Ex. 4B)
Square brackets hold non-standard residues; d marks the D form. Ends that are not written are not given here. NMeL = CN[C@@H](CC(C)C)C(=O)O
Recorded IC50 by entry
Express the result in µg/mL but write the number alone.

Please review the entries below; each comes with its answer.
CLGVLGRLC [3G3 basic amino acid 1: …]: 160
CLGV[NMeL]GKLC (not fully specified (bridges); cysteine pairing not given here) [3G3 N-Me amino acids 5: CLGV-nL-GKLC]: 180

Could you now look at the following binder, please?
I would be grateful if you could share the reported IC50 for AGPCLGVLGKLCG [3G3 truncation 5: … (as printed)] .
450
